Experiment: blockers of ER-stress CHOP reporter expression – cell-based, unfolded protein response, luciferase reporter, primary screen (AID 2732);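 also: 0% = tunicamycin plus vehicle and 100% = wells without tunicamycin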
Settings: CHO-K1 CHOP-promoter luciferase, tunicamycin-induced, 15-18 h; at 10 µM
In all, about 220,000 compounds went through this assay and about 8,200 (3.7%) were called active.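 The calls were made as follows: active = compounds that reduced the stress-induced luciferase reporter signal by more than about 70% of percent inhibition (limit read from the data); inactive = the rest.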 Many of the other results were omitted from the sample, so actives are more common in it than they were.
Can you answer with just one of these options? 1 = active, -1 = inactive

Check out these entries, answers already filled in.
compound: O=C(C1CC1)N1CCN=C1SCc1ccc(Cl)cc1
group label: -1
//
compound: CC(=O)Nc1nc2c(s1)C(=O)NCC(C)(C)C2
group label: -1
//
compound: C/C(=N/NC(=O)CN1CCN(S(=O)(=O)c2ccc(Br)cc2)CC1)c1ccncc1
group label: -1
//
compound: CC1CCN(C(=O)c2ccc(CSc3ccc(Cl)cc3)cc2)CC1
group label: 1
//
compound: COc1ccc(C(=O)N/N=C(\C)CC(=O)Nc2ccc(Cl)cn2)cc1
group label: -1
//
compound: COc1ccc([N+](=O)[O-])cc1N(CC(O)CN(CC(C)C)CC(C)C)S(=O)(=O)c1ccc(C)cc1 (stereo unspecified)
group label: -1
//
compound: COC(=O)[C@H](Cc1ccccc1)NC(=O)Nc1ccc(OC)cc1
group label: -1
//
compound: O=C(NCCCc1ccccc1)C1CCC(CNc2c(N3CCCCC3)c(=O)c2=O)CC1 (stereo unspecified)
group label: -1

Exam item: Dear colleague, could you share the recorded outcome for NNC(=O)COc1ccc(C2SCCS2)cc1 when you have a moment?
Marked response: -1

Exam item: Try NC(=O)COc1ccc(C23CC4CC(CC(C4)C2)C3)cc1 next.
Marked response: 1

Exam item: Please answer likewise for Cc1cccc(C(=O)NNC(=O)c2cccc([N+](=O)[O-])c2)c1
Marked response: -1

Reference for the values: PubChem BioAssay AID2732
